target: PDGF-BB (Homo sapiens); test: FLIPR calcium flux in PASMC (Example 17); assay type: cell-based; design: purchased R&D Systems 220-GMP; conditions: range over PDGF-AA, PDGF-DD, PDGF-BB driven calcium flux and proliferation; read-out: IC50 values
pIC50: −log10 of the molar value.
experimental_endpoint: pIC50

Form: compound = "COc1ccc(-c2cncc(N[C@@H](C)c3cccc(NC(=O)c4cncc(C)c4)c3)n2)cc1OC" ; pIC50 = 7.57 to 8.22

* * *

target: PDGF-BB (Homo sapiens, UniProt P01127); assay: FLIPR calcium flux in PASMC (Example 17); assay type: cell-based; parameters: purchased R&D Systems 220-GMP; conditions: PASMC; 0.5 nM PDGF-BB constant; read-out: IC50 Calcium Flux, PDGF-BB
Sequence (P01127 82-190 limits assumed): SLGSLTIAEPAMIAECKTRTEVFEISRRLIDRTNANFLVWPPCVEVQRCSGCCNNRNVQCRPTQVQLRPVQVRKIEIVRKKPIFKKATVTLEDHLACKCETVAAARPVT
experimental_endpoint: pIC50
A value of pIC50 is the negative decimal logarithm of a concentration given in moles per litre.

Form: molecule = COc1ccc(-c2cncc(N[C@@H](C)c3cccc(NC(=O)c4cncc(C)c4)c3)n2)cc1OC [Seralutinib] ; pIC50 = 8.00

* * *

system: Human PDGF-AA; assay: FLIPR calcium flux in PASMC (Example 17); type: cell-based; conditions: 3 nM PDGF-AA constant
experimental_endpoint: pIC50
A value of pIC50 is the negative decimal logarithm of a concentration given in moles per litre.

{"compound": "COc1ccc(-c2cncc(N[C@@H](C)c3cccc(NC(=O)c4cncc(C)c4)c3)n2)cc1OC [Seralutinib]", "endpoint_result": 8.00}

Shifting focus to the compound that follows.
Form: compound = Cc1ccc(NC(=O)c2ccc(CN3CCN(C)CC3)cc2)cc1Nc1nccc(-c2cccnc2)n1 [Imatinib] ; pIC50 = 6.57

* * *

biological target: PDGF-BB (Homo sapiens, UniProt P01127); assay: IncuCyte proliferation of PASMC (Example 17); format: cell-based; parameters: purchased R&D Systems 220-GMP; settings: IncuCyte cell confluence at day 6
experimental_endpoint: IC50 (nM)
A number alone suffices; assume nM.

Form: compound = COc1ccc(-c2cncc(N[C@@H](C)c3cccc(NC(=O)c4cncc(C)c4)c3)n2)cc1OC [Seralutinib] ; IC50 = 6

Cited source for all entries: patent US20240425574A1
